Numbers sourced from patent US20240025949A1.

- assayed-target: rat angiotensin 2 type 1 receptor (rat) (UniProt P25095)
- Sequence (P25095 whole entry): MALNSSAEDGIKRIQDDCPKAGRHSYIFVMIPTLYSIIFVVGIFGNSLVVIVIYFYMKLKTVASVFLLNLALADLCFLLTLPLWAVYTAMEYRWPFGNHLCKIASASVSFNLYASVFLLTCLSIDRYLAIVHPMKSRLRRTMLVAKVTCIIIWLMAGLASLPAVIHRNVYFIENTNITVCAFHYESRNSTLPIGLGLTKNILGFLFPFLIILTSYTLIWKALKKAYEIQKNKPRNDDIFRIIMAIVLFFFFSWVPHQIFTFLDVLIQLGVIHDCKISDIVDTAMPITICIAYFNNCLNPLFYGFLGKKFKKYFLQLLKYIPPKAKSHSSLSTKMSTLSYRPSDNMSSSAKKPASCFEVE
- assay-details: cell-based or functional assay
Where no end group is shown, it is not given here.
Binary call on b-arrestin2 Max: T from 80% upward, F beneath that.

Worked examples follow.
binder: RVYFHPA (N-terminal Sar; C-terminal acid) [SEQ ID NO: 21 (Sar-Arg-Val-Tyr-Phe-His-Pro-Ala-OH)]
category: T
--
binder: RVYYHP (N-terminal Sar; C-terminal D-Phe) [SEQ ID NO: 28 (Sar-Arg-Val-Tyr-Tyr-His-Pro-D-Phe-OH)]
category: T
--
binder: ARVYVHPA (N-methyl residue; C-terminal acid) [SEQ ID NO: 33 (NMAla-Arg-Val-Tyr-Val-His-Pro-Ala-OH)]
category: T
--
binder: RVYIHPRVYIHPRVYIHP (cyclic) [SEQ ID NO: 36 (Cyclo(Arg-Val-Tyr-Ile-His-Pro-Arg-Val-Tyr-Ile-His-Pro-Arg-Val-Tyr-Ile-His-Pro))]
category: F
--
binder: RVYIHP-NH2 [SEQ ID NO: 13 (Arg-Val-Tyr-Ile-His-Pro-NH2)]
category: T

Determine whether measured b-arrestin2 Max meets or exceeds 80% for RVYYHPI (N-terminal Sar; C-terminal amide) [SEQ ID NO: 15 (Sar-Arg-Val-Tyr-Tyr-His-Pro-Ile-NH2)]
F

Okay, and ERVYYHP (N-methyl; C-terminal amide) [SEQ ID NO: 62 (N-Me-Glu-Arg-Val-Tyr-Tyr-His-Pro-NH2)] ?
F

Okay, and VYIHPF (cyclic) [SEQ ID NO: 38 (Cyclo(Val-Tyr-Ile-His-Pro-Phe))] ?
F

Okay, and RVYVHPA (N-terminal Me2Gly; C-terminal acid) [SEQ ID NO: 31 (Me2G-Arg-Val-Tyr-Val-His-Pro-Ala-OH)] ?
F

Okay, and RVYRHPA (N-terminal Sar; C-terminal acid) [SEQ ID NO: 24 (Sar-Arg-Val-Tyr-Arg-His-Pro-Ala-OH)] ?
F
